Provenance of the data: patent US20250163022A1

IC50 listing for selected compounds.
- target-entity: PARP1 (Homo sapiens, UniProt P09874)
- Construct: HeLa cells (wide-type with PARP1 gene) were purchased from ATCC
- Sequence (P09874 whole entry): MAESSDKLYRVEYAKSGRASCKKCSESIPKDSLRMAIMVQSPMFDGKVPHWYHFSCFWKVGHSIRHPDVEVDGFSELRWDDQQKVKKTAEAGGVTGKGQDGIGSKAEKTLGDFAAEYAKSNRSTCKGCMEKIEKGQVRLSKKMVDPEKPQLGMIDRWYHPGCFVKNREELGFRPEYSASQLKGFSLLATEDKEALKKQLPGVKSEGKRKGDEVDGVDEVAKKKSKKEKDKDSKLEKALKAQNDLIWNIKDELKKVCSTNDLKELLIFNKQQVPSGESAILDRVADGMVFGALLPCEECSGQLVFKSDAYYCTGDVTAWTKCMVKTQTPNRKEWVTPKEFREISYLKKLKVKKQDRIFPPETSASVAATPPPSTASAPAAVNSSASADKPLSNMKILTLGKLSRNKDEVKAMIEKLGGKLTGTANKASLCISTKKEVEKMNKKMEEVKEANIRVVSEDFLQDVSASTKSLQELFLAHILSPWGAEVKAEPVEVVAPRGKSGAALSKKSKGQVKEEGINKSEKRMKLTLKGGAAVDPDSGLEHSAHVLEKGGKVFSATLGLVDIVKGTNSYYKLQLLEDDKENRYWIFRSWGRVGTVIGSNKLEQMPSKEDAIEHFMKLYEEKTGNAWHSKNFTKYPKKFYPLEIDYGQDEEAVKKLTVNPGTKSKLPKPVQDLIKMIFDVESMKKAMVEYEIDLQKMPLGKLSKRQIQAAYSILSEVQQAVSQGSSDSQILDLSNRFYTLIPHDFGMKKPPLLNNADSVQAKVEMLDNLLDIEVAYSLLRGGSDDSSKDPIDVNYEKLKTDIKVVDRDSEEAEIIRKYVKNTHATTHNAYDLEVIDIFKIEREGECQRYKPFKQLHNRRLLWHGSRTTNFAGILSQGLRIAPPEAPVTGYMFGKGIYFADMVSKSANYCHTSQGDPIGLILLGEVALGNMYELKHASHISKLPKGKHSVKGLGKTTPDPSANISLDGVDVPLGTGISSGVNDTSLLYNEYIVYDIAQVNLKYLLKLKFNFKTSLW
- protocol-details: In-Cell Western measurement of PARylation in PARP1 WT and knockout cells
- settings: HeLa cells (wide-type with PARP1 gene); hydrogen peroxide-induced PARylation; compounds 30 min, then 10 mM hydrogen peroxide 15 min; read-out: HeLa_WT_IC50

> print(dat)
                                smiles.data  assay.metric  endpoint.result
1  CCN1C(=O)Nc2cc(CN3CCN(c4ccc(C(=O)NC)nc4C)CC3)cc3ncnc1c23          IC50          ≤ 10 nM
2  CNC(=O)c1ccc(N2CCN(Cc3ccc4c(c3)NC(=O)C3(CC3)C4)CC2)cn1          IC50     10 to 100 nM
3  CCN1C(=O)Nc2c(F)c(CN3CCN(c4ccc(C(=O)N[C@H]5[C@@H]6COC[C@@H]65)nc4C)CC3)cc3ncnc1c23          IC50          ≤ 10 nM
4  CCN1C(=O)Nc2c(F)c(CN3CCN(c4ccc(C(=O)NC)nc4C)CC3)cc3nc(C)nc1c23          IC50          ≤ 10 nM
5  CCc1c2c3c(cc(CN4CCN(c5ccc(C(=O)NC)nc5)CC4)cc3[nH]c1=O)OCC2          IC50          ≤ 10 nM

Param item = `CCN1C(=O)Nc2c(F)c(CN3CCN(c4ccc(C(=O)N[C@@H]5[C@@H]6COC[C@@H]65)nc4C)CC3)cc3ncnc1c23` ; retrieve measured IC50.
10 to 100 nM

Param item = `CCn1c(=O)[nH]c2c(F)c(CN3CCN(c4ccc(C(=O)NC)nc4C)CC3)cc(C3CC3)c2c1=O` ; retrieve measured IC50.
≤ 10 nM

---

IC50 listing for selected compounds.
- target-entity: PARP1 (Homo sapiens, UniProt P09874)
- Construct: HeLa cells (wide-type with PARP1 gene) were purchased from ATCC
- protocol-details: In-Cell Western measurement of PARylation in PARP1 WT and knockout cells
- settings: HeLa cells (wide-type with PARP1 gene); hydrogen peroxide-induced PARylation; compounds 30 min, then 10 mM hydrogen peroxide 15 min; read-out: HeLa_WT_IC50

// solved cases for IC50 follow
> print(dat)
                                smiles.data  endpoint.result
1  CCN1C(=O)Nc2c(F)c(CN3CCN(c4ccc(C(=O)N[C@H]5CC[C@H](C#N)CC5)nc4C)CC3)cc3ncnc1c23     10 to 100 nM
2  CCN1C(=O)Nc2c(F)c(CN3CCN(c4ccc(C(=O)NC5CCC5)nc4C)CC3)cc3ncnc1c23          ≤ 10 nM
3  CCNC(=O)c1ccc(N2CCN(Cc3cc(Cl)c4c(=O)n(C)c(=O)[nH]c4c3)CC2)c(C)n1          ≤ 10 nM
4  CCn1c(=O)[nH]c2cc(CN3CCN(c4ccc(C(=O)NC)nc4F)CC3)ccc2c1=O          ≤ 10 nM
5  [2H]C([2H])([2H])NC(=O)c1ccc(N2CCN(Cc3cc(F)c4c(=O)n(CC)c(=O)[nH]c4c3)CC2)c(C([2H])([2H])[2H])n1          ≤ 10 nM

Consider the additional compound presented here.
Param item = `CNC(=O)c1ccc(N2CCN(Cc3cc(C4CC4)c4c(=O)n(C)c(=O)[nH]c4c3F)CC2)c(C)n1` ; retrieve measured IC50.
≤ 10 nM

---

- target-entity: PARP1 (Homo sapiens)
- Construct: HeLa cells (wide-type with PARP1 gene) were purchased from ATCC
- protocol-details: In-Cell Western measurement of PARylation in PARP1 WT and knockout cells
- settings: HeLa cells (wide-type with PARP1 gene); hydrogen peroxide-induced PARylation; compounds 30 min, then 10 mM hydrogen peroxide 15 min; read-out: HeLa_WT_IC50
assay-metric: IC50

// solved cases for IC50 follow
> print(dat)
                                   compound  assay.metric  endpoint.result
1  CCN1C(=O)Nc2c(F)c(CN3CCN(c4ccc(C(=O)N[C@H]5C[C@H](C#N)C5)nc4C)CC3)cc3ncnc1c23          IC50          ≤ 10 nM
2  CNC(=O)c1ccc(N2CCN(Cc3ccc4c(c3)[nH]c(=O)c3ccn(C)c34)CC2)cn1          IC50          ≤ 10 nM

Param item = `CCN1C(=O)Nc2c(F)c(CN3CCN(c4ccc(C(=O)NOCC5CC5)nc4C)CC3)cc3ncnc1c23` ; retrieve measured IC50.
≤ 10 nM

Param item = `CCN1C(=O)Nc2c(F)c(CN3CCN(c4ccc(C(=O)N[C@H]5CCCOC5)nc4C)CC3)cc3ncnc1c23` ; retrieve measured IC50.
≤ 10 nM

---

- target-entity: PARP1 (Homo sapiens)
- Construct: HeLa cells (wide-type with PARP1 gene) were purchased from ATCC; host or cells: HeLa (wild type)
- protocol-details: In-Cell Western measurement of PARylation in PARP1 WT and knockout cells
- Type: cell-based
- settings: HeLa cells (wide-type with PARP1 gene); hydrogen peroxide-induced PARylation; compounds 30 min, then 10 mM hydrogen peroxide 15 min; read-out: HeLa_WT_IC50
assay-metric: IC50

// solved cases for IC50 follow
> print(dat)
                                   compound  endpoint.result
1  CCN1C(=O)Nc2c(F)c(CN3CCN(c4ccc(C(=O)NOC)nc4C)CC3)cc3ncnc1c23 [Compound I-57]          ≤ 10 nM
2  CNC(=O)c1ccc(N2CCN(Cc3ccc4c(=O)n(CC(F)F)c(=O)[nH]c4c3)CC2)cn1 [Compound I-12]          ≤ 10 nM
3  CCN1C(=O)Nc2c(F)c(CN3CCN(c4ccc(C(=O)NC5CC5)cc4C)CC3)cc3ncnc1c23 [Compound I-82]          ≤ 10 nM
4  CCN1C(=O)Nc2c(F)c(CN3CCN(c4ccc(C(=O)NC5CC5)cc4F)CC3)cc3ncnc1c23 [Compound I-86]     10 to 100 nM
5  CCN1C(=O)Nc2c(F)c(CN3CCN(c4ccc(C(=O)NC5(CO)CC5)nc4C)CC3)cc3ncnc1c23 [Compound I-59]          ≤ 10 nM

Param item = CNC(=O)c1ccc(N2CCN(Cc3cc(OC)c4c(=O)n(C)c(=O)[nH]c4c3F)CC2)c(C)n1 [Compound I-38] ; retrieve measured IC50.
≤ 10 nM

Param item = CNC(=O)c1ccc(N2CCN(Cc3cc(C(F)F)c4c(=O)n(C)c(=O)[nH]c4c3)CC2)c(C)n1 [Compound I-47] ; retrieve measured IC50.
≤ 10 nM

Param item = CCN1C(=O)Nc2c(F)c(CN3CCN(c4ccc(C(=O)NC5(C#N)CC5)nc4C)CC3)cc3ncnc1c23 [Compound I-62] ; retrieve measured IC50.
≤ 10 nM

Param item = CCN1C(=O)Nc2c(F)c(CN3CCN(c4ccc(C(=O)N[C@H]5CCOC5)nc4C)CC3)cc3ncnc1c23 [Compound I-73] ; retrieve measured IC50.
≤ 10 nM

Param item = CCn1c(=O)[nH]c2c(F)c(CN3CCN(c4ccc(C(=O)NC)nc4C)CC3)cc(COC)c2c1=O [Compound I-46] ; retrieve measured IC50.
≤ 10 nM

Param item = CCn1c(=O)[nH]c2cc(CN3CCN(c4ccc(C(=O)NC)nc4F)CC3)cc(F)c2c1=O [Compound I-33] ; retrieve measured IC50.
≤ 10 nM

---

- target-entity: PARP1 (Homo sapiens)
- Construct: HeLa cells (wide-type with PARP1 gene) were purchased from ATCC
- protocol-details: In-Cell Western measurement of PARylation in PARP1 WT and knockout cells
- settings: HeLa cells (wide-type with PARP1 gene); hydrogen peroxide-induced PARylation; compounds 30 min, then 10 mM hydrogen peroxide 15 min; read-out: HeLa_WT_IC50
IC50 listing for selected compounds.

Param item = `CCN1C(=O)Nc2c(F)c(CN3CCN(c4ccc(C(=O)NC)nc4C)CC3)cc3nc(OC)nc1c23` ; retrieve measured IC50.
≤ 10 nM

Param item = `CNC(=O)c1ccc(N2CCN(Cc3ccc4c(c3)[nH]c(=O)c3c4cnn3C)CC2)cn1` ; retrieve measured IC50.
10 to 100 nM

Param item = `CCn1c(=O)[nH]c2cc(CN3CCN(c4ccc(C(=O)NC)nc4C)CC3)cc(C(F)F)c2c1=O` ; retrieve measured IC50.
≤ 10 nM

Param item = `CCN1C(=O)Nc2c(F)c(CN3CCN(c4ccc(C(=O)N[C@@H]5CCN(C)C5)nc4C)CC3)cc3ncnc1c23` ; retrieve measured IC50.
10 to 100 nM

---

IC50 listing for selected compounds.
- target-entity: PARP1 (Homo sapiens)
- Construct: HeLa cells (wide-type with PARP1 gene) were purchased from ATCC
- protocol-details: In-Cell Western measurement of PARylation in PARP1 WT and knockout cells
- settings: HeLa cells (wide-type with PARP1 gene); hydrogen peroxide-induced PARylation; compounds 30 min, then 10 mM hydrogen peroxide 15 min; read-out: HeLa_WT_IC50

// solved cases for IC50 follow
> print(dat)
                                   compound  endpoint.result
1  CCN1C(=O)Nc2c(F)c(CN3CCN(c4ccc(C(=O)N[C@H]5CC[C@@H](C#N)CC5)nc4C)CC3)cc3ncnc1c23 [Compound I-74]     10 to 100 nM
2  CCN1C(=O)Nc2cc(CN3CCN(c4ccc(C(=O)NC)nc4C(F)(F)F)CC3)cc3ncnc1c23 [Compound I-18]          ≤ 10 nM
3  CCNC(=O)c1ccc(N2CCN(Cc3cc(Cl)c4c(=O)n(CC)c(=O)[nH]c4c3)CC2)c(C)n1 [Compound I-48]          ≤ 10 nM
4  CCN1C(=O)Nc2c(F)c(CN3CCN(c4ccc(C(=O)NC5(COC)CC5)nc4C)CC3)cc3ncnc1c23 [Compound I-66]          ≤ 10 nM
5  CCn1c(=O)[nH]c2cc(CN3CCN(c4ccc(C(=O)NC)nc4C(F)(F)F)CC3)ccc2c1=O [Compound I-31]          ≤ 10 nM
6  CNC(=O)c1ccc(N2CCN(Cc3cnc4c5c(c(=O)[nH]c4c3)CCC5)CC2)c(F)n1 [Compound I-24]          ≤ 10 nM
7  CCN1Cc2ncc(CN3CCN(c4ccc(C(=O)NC)nc4)CC3)cc2NC1=O [Compound I-11]     10 to 100 nM
8  CCN1C(=O)Nc2c(F)c(CN3CCN(c4ccc(C(=O)NC5CC5)nc4C)CC3)cc3c(=O)n(C)nc1c23 [Compound I-80]     10 to 100 nM

Consider the additional compound presented here.
Param item = CCN1C(=O)Nc2c(F)c(CN3CCN(c4ccc(C(=O)NC5CC5)nc4C)CC3)cc3c(C)nnc1c23 [Compound I-56] ; retrieve measured IC50.
≤ 10 nM
